meta.source: patent US20240270762A1

Give measured MIC for each item. Keep answers brief.
# Test system: N. gonorrhoeae WHO L
# METHOD: Liquid broth MIC in Fastidious broth
# RUN PARAMETERS: Neisseria gonorrhoeae, read-out: Minimum Inhibitory Concentration, WHO L

Hi! What's the reported MIC for O=C(NCCCN1CCN(C(=O)NC(C(=O)N[C@H]2Cc3ccc(F)c(C(=O)O)c3OB2O)c2cc(F)c(O)c(O)c2Cl)C1=O)Nc1ccncc1 (stereo partly drawn) on N. gonorrhoeae WHO L?
> 64 µg/mL

Hi! What's the reported MIC for O=C(O)c1c(F)ccc2c1OB(O)[C@@H](NC(=O)C(NC(=O)N1CCN(S(=O)(=O)CCCNC(=O)[C@@H]3CCCN3)C1=O)c1cc(F)c(O)c(O)c1Cl)C2 (stereo partly drawn) on N. gonorrhoeae WHO L?
> 64 µg/mL

Hi! What's the reported MIC for O=C(NCCS(=O)(=O)N1CCN(C(=O)N[C@H](C(=O)N[C@H]2Cc3ccc(F)c(C(=O)O)c3OB2O)c2cc(F)c(O)c(O)c2Cl)C1=O)c1nccs1 on N. gonorrhoeae WHO L?
> 64 µg/mL

###

# SUBJECT OF TEST: A. baumannii PBP1a (Acinetobacter baumannii, UniProt A0ABX6CK30)
# Sequence (A0ABX6CK30 1-851): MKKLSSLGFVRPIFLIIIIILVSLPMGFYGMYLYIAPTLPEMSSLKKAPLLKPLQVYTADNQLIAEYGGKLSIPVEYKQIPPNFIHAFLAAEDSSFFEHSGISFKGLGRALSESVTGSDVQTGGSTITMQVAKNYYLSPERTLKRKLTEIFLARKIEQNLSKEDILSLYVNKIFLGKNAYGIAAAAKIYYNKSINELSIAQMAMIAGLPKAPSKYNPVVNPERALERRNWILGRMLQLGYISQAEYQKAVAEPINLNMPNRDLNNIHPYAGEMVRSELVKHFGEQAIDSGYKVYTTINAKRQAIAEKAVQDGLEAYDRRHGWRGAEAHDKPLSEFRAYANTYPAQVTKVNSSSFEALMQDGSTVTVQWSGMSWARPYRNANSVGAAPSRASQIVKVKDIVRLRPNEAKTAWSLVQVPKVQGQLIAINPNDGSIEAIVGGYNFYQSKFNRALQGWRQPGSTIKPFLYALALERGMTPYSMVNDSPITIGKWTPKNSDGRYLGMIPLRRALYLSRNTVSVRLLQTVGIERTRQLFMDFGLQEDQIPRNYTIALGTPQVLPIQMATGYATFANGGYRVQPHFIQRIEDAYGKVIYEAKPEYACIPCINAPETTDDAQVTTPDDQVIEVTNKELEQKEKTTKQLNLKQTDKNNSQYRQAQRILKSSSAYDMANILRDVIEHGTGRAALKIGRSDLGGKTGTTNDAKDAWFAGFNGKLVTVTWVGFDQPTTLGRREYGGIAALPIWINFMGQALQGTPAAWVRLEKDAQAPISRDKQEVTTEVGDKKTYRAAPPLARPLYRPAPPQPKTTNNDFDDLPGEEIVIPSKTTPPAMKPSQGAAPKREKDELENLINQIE
# METHOD: Bocillin-FL competition binding via gel filtration, A. baumannii PBP1a
# RUN PARAMETERS: competition binding assay using Bocillin-FL via gel filtration; read-out: A. baumannii PBP1a Potency
ATTRIBUTE MEASURED: EC50

# get_value(readout='EC50', item= O=C(O)c1c(F)ccc2c1OB(O)[C@@H](NC(=O)C(NC(=O)N1CCN(C3CCN(C(=O)Nc4cc(O)cc(F)c4)CC3)C(=O)C1=O)c1cc(F)c(O)c(O)c1Cl)C2 (stereo partly drawn) )
< 10 µM

# get_value(readout='EC50', item= O=C(O)c1c(F)ccc2c1OB(O)[C@@H](NC(=O)[C@H](NC(=O)N1CCN(C3CCN(C(=O)Nc4cccc(O)c4Cl)CC3)C1=O)c1cc(F)c(O)c(O)c1Cl)C2 )
< 10 µM

# get_value(readout='EC50', item= O=C(O)c1c(F)ccc2c1OB(O)[C@@H](NC(=O)[C@H](NC(=O)N1CCN(C3CCN(C(=O)Nc4cc(O)ccc4F)CC3)C1=O)c1cc(F)c(O)c(O)c1Cl)C2 (single isomer, unassigned) )
< 10 µM

###

Give measured MIC for each item. Keep answers brief.
# Tested on: A. baumannii CDC-0033
# METHOD: microbe, parasite or virus in culture
# Assay type: cell-based
# RUN PARAMETERS: Acinetobacter baumannii, CDC0033, read-out: MIC, A. baumannii CDC-0033

# get_value(readout='MIC', item= O=C(NCCCN1CCN(C(=O)NC(C(=O)N[C@H]2Cc3ccc(F)c(C(=O)O)c3OB2O)c2cc(F)c(O)c(O)c2Cl)C(=O)C1=O)c1ccncc1F (some centres unmarked) )
2 to 4 µg/mL

# get_value(readout='MIC', item= O=C(NCCCN1CCN(C(=O)N[C@H](C(=O)N[C@H]2Cc3ccc(F)c(C(=O)O)c3OB2O)c2cc(F)c(O)c(O)c2Cl)C1=O)c1cccc(O)c1 )
32 to 64 µg/mL

# get_value(readout='MIC', item= O=C(NCCCN1CCN(C(=O)NC(C(=O)N[C@H]2Cc3ccc(F)c(C(=O)O)c3OB2O)c2cc(F)c(O)c(O)c2Cl)C(=O)C1=O)c1cc(O)ccc1F (some centres unmarked) )
2 to 4 µg/mL

# get_value(readout='MIC', item= O=C(NCCCN1CCN(C(=O)NC(C(=O)N[C@H]2Cc3ccc(F)c(C(=O)O)c3OB2O)c2cc(F)c(O)c(O)c2Cl)C(=O)C1=O)c1cc(F)c(F)c(O)c1F (some centres unmarked) )
2 to 4 µg/mL

# get_value(readout='MIC', item= O=C(NCCCN1CCN(C(=O)NC(C(=O)N[C@H]2Cc3ccc(F)c(C(=O)O)c3OB2O)c2cc(F)c(O)c(O)c2Cl)C(=O)C1=O)c1ccnc(F)c1 (some centres unmarked) )
2 to 4 µg/mL

# get_value(readout='MIC', item= O=C(NCCN1CCN(C(=O)NC(C(=O)N[C@H]2Cc3ccc(F)c(C(=O)O)c3OB2O)c2cc(F)c(O)c(O)c2Cl)C1=O)c1ccc(O)cc1 (some centres unmarked) )
2 to 4 µg/mL

# get_value(readout='MIC', item= O=C(NCCS(=O)(=O)N1CCN(C(=O)N[C@@H](C(=O)N[C@H]2Cc3ccc(F)c(C(=O)O)c3OB2O)c2cc(F)c(O)c(O)c2Cl)C1=O)Nc1cccnc1 )
8 to 16 µg/mL

# get_value(readout='MIC', item= O=C(NCCCN1CCN(C(=O)N[C@@H](C(=O)N[C@H]2Cc3ccc(F)c(C(=O)O)c3OB2O)c2cc(F)c(O)c(O)c2Cl)C1=O)Nc1ccc(O)cc1 )
< 1 µg/mL

# get_value(readout='MIC', item= O=C(NCCCS(=O)(=O)N1CCN(C(=O)NC(C(=O)N[C@H]2Cc3ccc(F)c(C(=O)O)c3OB2O)c2cc(F)c(O)c(O)c2Cl)C1=O)Nc1ccncc1 (some centres unmarked) )
2 to 4 µg/mL

# get_value(readout='MIC', item= O=C(O)c1c(F)ccc2c1OB(O)[C@@H](NC(=O)C(NC(=O)N1CCN(Cc3ccc(O)c(O)c3Cl)C(=O)C1=O)c1cc(F)c(O)c(O)c1Cl)C2 (some centres unmarked) )
> 128 µg/mL

# get_value(readout='MIC', item= O=C(CN1CCN(C(=O)NC(C(=O)N[C@H]2Cc3ccc(F)c(C(=O)O)c3OB2O)c2cc(F)c(O)c(O)c2Cl)C(=O)C1=O)Nc1ccccc1 (some centres unmarked) )
32 to 64 µg/mL

###

# Test system: N. gonorrhoeae WHO Q
# METHOD: Liquid broth MIC in Fastidious broth
# RUN PARAMETERS: Neisseria gonorrhoeae, read-out: Minimum Inhibitory Concentration (MIC), N. gonorrhoeae WHO Q
Give measured MIC for each item. Keep answers brief.

# get_value(readout='MIC', item= CS(=O)(=O)N1CCN(C(=O)NC(C(=O)N[C@H]2Cc3cccc(C(=O)O)c3OB2O)c2ccc(P(=O)(O)O)c(Cl)c2)C1=O (stereo partly drawn) )
< 1 µg/mL

# get_value(readout='MIC', item= O=C(O)c1cccc2c1OB(O)[C@@H](NC(=O)C(NC(=O)[C@H]1CCCN1)c1ccc(P(=O)(O)O)cc1)C2 (stereo partly drawn) )
16 to 32 µg/mL

# get_value(readout='MIC', item= O=C(O)c1cccc2c1OB(O)[C@@H](NC(=O)[C@@H](NC(=O)c1ccn[nH]c1=O)c1ccc(P(=O)(O)O)cc1)C2 (single isomer, unassigned) )
4 to 8 µg/mL

###

# SUBJECT OF TEST: UniProtKB P0AD68
# Sequence (P0AD68 1-577): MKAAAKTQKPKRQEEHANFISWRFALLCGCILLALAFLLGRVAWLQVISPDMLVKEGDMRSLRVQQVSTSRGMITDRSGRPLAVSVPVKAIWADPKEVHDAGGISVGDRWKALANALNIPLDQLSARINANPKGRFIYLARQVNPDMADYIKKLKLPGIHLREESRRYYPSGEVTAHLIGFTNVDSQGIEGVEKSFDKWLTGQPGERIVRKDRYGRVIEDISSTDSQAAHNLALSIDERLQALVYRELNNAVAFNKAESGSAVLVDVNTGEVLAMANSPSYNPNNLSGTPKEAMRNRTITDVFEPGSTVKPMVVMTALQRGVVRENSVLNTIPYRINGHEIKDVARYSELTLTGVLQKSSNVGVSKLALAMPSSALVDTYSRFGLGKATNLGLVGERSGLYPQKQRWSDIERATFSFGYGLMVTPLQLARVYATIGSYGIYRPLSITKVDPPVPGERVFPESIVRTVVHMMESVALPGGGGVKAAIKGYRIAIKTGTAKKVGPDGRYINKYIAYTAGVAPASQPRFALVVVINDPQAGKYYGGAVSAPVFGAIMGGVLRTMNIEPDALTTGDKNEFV
# METHOD: Bocillin-FL fluorescence polarization competition binding, E. coli PBP3
pEC50: −log10 of the molar value.
ATTRIBUTE MEASURED: pEC50

# get_value(readout='pEC50', item= O=C(NCCCN1CCN(C(=O)N[C@H](C(=O)N[C@H]2Cc3ccc(F)c(C(=O)O)c3OB2O)c2cc(F)c(O)c(O)c2Cl)C(=O)C1=O)c1ccnc(F)c1F )
< 3.60

# get_value(readout='pEC50', item= CCN1CCN(C(=O)NC(C(=O)N[C@H]2Cc3cccc(C(=O)O)c3OB2O)c2cc(P(=O)(O)O)ccc2F)C(=O)C1=O (some centres unmarked) )
> 5.00

# get_value(readout='pEC50', item= O=C(CN1CCN(C(=O)NC(C(=O)N[C@H]2Cc3ccc(F)c(C(=O)O)c3OB2O)c2cc(F)c(O)c(O)c2Cl)C(=O)C1=O)Nc1cccc(O)c1 (some centres unmarked) )
> 5.00

# get_value(readout='pEC50', item= O=C(N[C@@H](C(=O)N[C@H]1Cc2cccc(C(=O)O)c2OB1O)c1ccc(P(=O)(O)O)cc1)c1cnc2ccnn2c1 (single isomer, unassigned) )
4.30 to 5.00

# get_value(readout='pEC50', item= O=C(NCCCN1CCN(C(=O)N[C@@H](C(=O)N[C@H]2Cc3ccc(F)c(C(=O)O)c3OB2O)c2cc(F)c(O)c(O)c2Cl)C(=O)C1=O)c1cc(F)c(O)cc1F (single isomer, unassigned) )
> 5.00

# get_value(readout='pEC50', item= CCN1CCN(C(=O)NC(C(=O)N[C@H]2Cc3cccc(C(=O)O)c3OB2O)c2cccc(CP(=O)(O)O)c2)C(=O)C1=O (some centres unmarked) )
> 5.00

# get_value(readout='pEC50', item= O=C(NCCCN1CCN(C(=O)N[C@@H](C(=O)N[C@H]2Cc3ccc(F)c(C(=O)O)c3OB2O)c2cc(F)c(O)c(O)c2Cl)C1=O)Nc1cccc(O)c1 )
> 5.00

# get_value(readout='pEC50', item= O=C(NCCCN1CCN(C(=O)NC(C(=O)N[C@H]2Cc3ccc(F)c(C(=O)O)c3OB2O)c2cc(F)c(O)c(O)c2Cl)C1=O)c1ccncc1 (some centres unmarked) )
4.30 to 5.00

# get_value(readout='pEC50', item= O=C(NCCN1CCN(C(=O)NC(C(=O)N[C@H]2Cc3ccc(F)c(C(=O)O)c3OB2O)c2cc(F)c(O)c(O)c2Cl)C1=O)c1cccnc1 (some centres unmarked) )
4.30 to 5.00

# get_value(readout='pEC50', item= O=C(O)c1cccc2c1OB(O)[C@@H](NC(=O)C(NC(=O)N1CCN(Cc3ccc(O)c(O)c3Cl)C(=O)C1=O)c1ccc(P(=O)(O)O)cc1)C2 (some centres unmarked) )
> 5.00

# get_value(readout='pEC50', item= O=C(O)c1cccc2c1OB(O)[C@@H](NC(=O)C(NC(=O)N1CCN(CC(F)(F)F)C(=O)C1=O)c1ccc(P(=O)(O)O)cc1)C2 (some centres unmarked) )
> 5.00
